- System: RXF 393
- Test summary: NCI tumour cell line growth inhibition, 48 h
The source made the active and inactive calls. Rule as the data show it: active = GI50 up to about 1.1 µM and inactive = higher.
Valid outcomes are listed here; reply with one: TRUE (active), FALSE (inactive)

Lab log entry: CC[C@](O)(CC(=O)O[C@H]1C(=O)O[C@@H]2C[C@H]3C(C)=CC(=O)[C@@H](O)[C@]3(C)[C@H]3[C@@]4(O)OC[C@]32[C@@H]1[C@@H](C)[C@H]4O)C(C)C — outcome as called in the assay?
TRUE

====

- Tested on: MDA-N
- Test summary: NCI tumour cell line growth inhibition, 48 h
The source made the active and inactive calls. Cut-off read from the data, not from the text of the source: active = GI50 up to about 1.1 µM and inactive = higher.
Valid outcomes are listed here; reply with one: Y for active, N for inactive

Lab log entry: Cc1c(N)nc([C@H](CC(N)=O)NC[C@H](N)C(N)=O)nc1C(=O)N[C@H](C(=O)N[C@H](C)[C@@H](O)[C@H](C)C(=O)N[C@H](C(=O)NCCc1nc(-c2nc(C(=O)NCCC[S+](C)C)cs2)cs1)[C@@H](C)O)C(OC1OC(CO)C(O)C(O)C1OC1OC(CO)C(O)C(OC(N)=O)C1O)c1c[nH]cn1 (some centres not stated) — outcome as called in the assay?
N

Lab log entry: CC1(C)CC(O)C2=C(O1)C(=O)c1ncccc1C2=O (configuration not stated) — outcome as called in the assay?
N
